- Tested on: RPMI-8226 leukemia
- assay.procedure: NCI-60 one-dose screen, 48 h (100 = growth as untreated, 0 = no growth, -100 = all killed)
- reported.conditions: 10 µM unless noted
This is part of a sample that, as a whole, favours compounds with a hit. Of some 83,000 tested, about 20% had one in any assay.
compounds and their reported growth
Value expressed in %; do not type the unit.

chemical.structure: COc1cc2c3c(c4c5ccccc5[nH]c4c2c(OC)c1OC)C(=O)N(CCN1CCOCC1)C3=O
target.or.system: RPMI-8226 leukemia
numeric.result: 39.5
--
chemical.structure: Cc1ccc(S(=O)(=O)Nn2c3c(cc(-c4nc5ccccc5s4)c2=O)CCCCCC3)cc1
target.or.system: RPMI-8226 leukemia
numeric.result: 97.8
--
chemical.structure: CCOC(=O)CSc1nc2ccccc2c(=O)n1Cc1ccc(S(N)(=O)=O)cc1
target.or.system: RPMI-8226 leukemia
numeric.result: 98.2
--
chemical.structure: Nc1c(S(=O)(=O)O)cc2c3c(cccc13)C(=O)OC2=O
target.or.system: RPMI-8226 leukemia
numeric.result: 106
--
chemical.structure: COc1cc(OC)cc(C(=O)C[n+]2cccc3cc[nH]c32)c1
target.or.system: RPMI-8226 leukemia
numeric.result: 106
--
chemical.structure: CC(=O)Nc1ccc(-n2cnc3cc(-c4ccc(OCCN5CCCCC5)cc4)ccc32)cc1
target.or.system: RPMI-8226 leukemia
numeric.result: 54
--
chemical.structure: N=C(N)c1ccc(OCCCCCCCCCCOc2ccc(C(=N)N)cc2)cc1
target.or.system: RPMI-8226 leukemia
numeric.result: -59.8
--
chemical.structure: CCCOC(=O)N[C@H]1CCc2c(Cl)c(OC)c(OC)c(OC)c2-c2ccc(SC)c(=O)cc21
target.or.system: RPMI-8226 leukemia
numeric.result: -2.97

Please find the next compound below.
QUERY: So what's the measured growth for this one? C=C(C)[C@@H]1CC[C@]2(C(=O)N3CCN(C)CC3)CC[C@]3(C)[C@H](CC[C@@H]4[C@@]5(C)C/C(=C/c6ccncc6)C(=O)C(C)(C)[C@@H]5CC[C@]43C)[C@@H]12
RESULT: 20.7

* * *

- Test system: HOP-92 NSCLC
- assay.procedure: NCI-60 one-dose screen, 48 h
- reported.conditions: 10 µM unless noted
About 83,000 compounds went through this panel and 20% of them were active in at least one assay; those are over-represented in the sample as a whole. Active and inactive are the calls of the source. The calls were made as follows: active = growth percent below 10; inactive = the rest.
In this exercise, the only acceptable responses are active, inactive

molecule: c1ccc2c(-c3c[nH]c4ccccc34)c3c(cc2c1)[nH]c1ccccc13
target.or.system: HOP-92 NSCLC
class.label: inactive
//
molecule: Brc1ccc2[nH]cc(-c3cncn3CCc3ccccc3)c2c1
target.or.system: HOP-92 NSCLC
class.label: inactive
//
molecule: Cc1c(C(=O)NCCC(=O)NO)sc2ncnc(Nc3ccc(NC(=O)Nc4cccc(C(F)(F)F)c4)cc3)c12
target.or.system: HOP-92 NSCLC
class.label: inactive
//
molecule: Oc1ccc(C(c2ccc(O)cc2)c2ccc(Br)cn2)cc1
target.or.system: HOP-92 NSCLC
class.label: active
//
molecule: Cc1nc2sccn2c1-c1nc2sccn2c1/C=C1/C(=O)Nc2ccccc21
target.or.system: HOP-92 NSCLC
class.label: active

QUERY: Could you please tell me the result logged for COc1cc2c(=O)n(CCCN(C)C)c3c4cc5c(cc4ccc3c2cc1OC)OCO5 in this assay?
RESULT: inactive

QUERY: Answer briefly: the call reported for COc1ccc2[nH]c(=O)c(CN3CCN(c4nccc(-c5ccc(Cl)cc5)n4)CC3)cc2c1 in this assay.
RESULT: inactive

* * *

- Tested on: NCI-H522 lung
- assay.procedure: NCI-60 one-dose screen, 48 h
- reported.conditions: 10 µM unless noted
This is part of a sample that, as a whole, favours compounds with a hit. Of some 83,000 tested, about 20% had one in any assay. The source made the active and inactive calls. Rule for the calls: active = growth percent below 10; inactive = the rest.
# output must be one of active, inactive

compound: CCN(CC)c1ccc(/C=N/NC(=O)CSc2nc3ccccc3c(=O)n2Cc2ccc(S(N)(=O)=O)cc2)c(O)c1
class.label: active
//
compound: Cc1ccc(-c2[nH][nH]c(=O)c2-c2nc3ccccc3s2)cc1
class.label: inactive
//
compound: CCOC(=O)c1cc(C(=O)c2ccc(OC)c(OC)c2)n2c1ccc1ccccc12
class.label: inactive
//
compound: c1ccc2c(-c3nccs3)c[nH]c2c1
class.label: inactive

Now consider the entry below.
QUERY: What did the test return for COc1ccc(C(=O)NNc2nc(Cl)nc(N3CCN(C(c4ccccc4)c4ccccc4)CC3)n2)cc1 ?
RESULT: active

* * *

Let's look at some compounds and their measured growth.
- Test system: EKVX NSCLC
- assay.procedure: NCI-60 one-dose screen, 48 h (100 = growth as untreated, 0 = no growth, -100 = all killed)
- reported.conditions: 10 µM unless noted
This is part of a sample that, as a whole, favours compounds with a hit. Of some 83,000 tested, about 20% had one in any assay.
State just the number; it will be interpreted in %.

QUERY: State the recorded growth for this entry: C=C(C)[C@@H]1CC[C@]2(C(=O)N[C@@H](Cc3ccccc3)C(=O)OC)CC[C@]3(C)[C@H](CC[C@@H]4[C@@]5(C)CCC(=O)C(C)(C)[C@@H]5CC[C@]43C)[C@@H]12
RESULT: 85.4

QUERY: Which value of growth has been reported for O=C(NNc1nc2c(F)cccc2n2cccc12)c1cnccn1 in the records?
RESULT: 18.5

QUERY: # input compound: N#C/C(=C\c1ccccn1)c1nc2cc(Cl)ccc2s1 ; wanted: its growth
RESULT: 56

QUERY: # query: growth of entry NC(=O)Nc1ccc(-n2cnc3cc(-c4ccc(O)cc4)ccc32)cc1
RESULT: 112

QUERY: Please report the recorded growth for CCN(CC)CCCC(C)Nc1cc(O)cc2cccnc12 (stereo not drawn) .
RESULT: 106

QUERY: Tell me the measured growth of CCOC(=O)c1cc(C(=O)c2ccc(OC)c(OC)c2)n2ccc(/C=C/c3cc[n+](CC(=O)c4ccc(OC)c(OC)c4)cc3)cc12 , please.
RESULT: 99.6

QUERY: # growth lookup, item O=C(/C=C(/C=C/c1csc2ccccc12)OB(F)F)/C=C/c1csc2ccccc12
RESULT: 23.7

QUERY: What value of measured growth is listed for Cc1ccc(-c2nc3ccccn3c2/C=C2/C(=O)Nc3cc(Cl)ccc32)cc1 ?
RESULT: 91.9

QUERY: May I ask what growth has been recorded for CCOC(=O)c1cc(C(=O)c2cc(OC)cc(OC)c2)n2ccc3ccccc3c12 ?
RESULT: 94.8

QUERY: Quick one: growth of Cc1ccc(C(=O)/C(=C/c2ccc([N+](=O)[O-])cc2)SCc2ccc(Cl)cc2)cc1 ?
RESULT: 89

QUERY: Would you mind telling me what growth value was observed for COc1ccc(C/C(=C(\C)c2ccc(OCCN3CCCC3)cc2)c2ccc(OCCN3CCCC3)cc2)cc1 ?
RESULT: 81.3

QUERY: # growth lookup, item COc1ccccc1/C(C)=N/NC(=O)CSc1nc2ccccc2c(=O)n1Cc1ccc(S(N)(=O)=O)cc1
RESULT: 85.6

QUERY: # input compound: C=C(CBr)[C@@H]1CC[C@]2(COC(C)=O)CC[C@]3(C)[C@H](CC[C@@H]4[C@@]5(C)CCCNC(C)(C)[C@@H]5CC[C@]43C)[C@@H]12 ; wanted: its growth
RESULT: 46.9

QUERY: growth for COc1ccc(C(=O)/C=C/c2cc3ccccc3n3nnnc23)cc1 ?
RESULT: 99.9

QUERY: Tell me the measured growth of N/C(=N\C(N)=N\c1nc2ccccc2s1)c1cnccn1 , please.
RESULT: 48

QUERY: Find the recorded growth belonging to C=C(C)[C@@H]1CC[C@]2(C(=O)N[C@H](CO)Cc3ccccc3)CC[C@]3(C)[C@H](CC[C@@H]4[C@@]5(C)CCCNC(C)(C)[C@@H]5CC[C@]43C)[C@@H]12 and report it.
RESULT: -84.1

QUERY: What growth value was documented for this compound, O=C(N/N=C/c1cc2ccccc2n2nnnc12)Nc1ccccc1 ?
RESULT: 98

QUERY: State the recorded growth for this entry: COc1cc2nc(-c3ccc(C(F)(F)F)cc3)cc(OCCCN3CCOCC3)c2cc1OC
RESULT: 61.6

* * *

- Test system: PC-3 prostate
- assay.procedure: NCI-60 one-dose screen, 48 h (100 = growth as untreated, 0 = no growth, -100 = all killed)
- reported.conditions: 10 µM unless noted
Compounds without any hit were thinned out: in the full panel of roughly 83,000, 20% have a hit. Calls of active or inactive are those of the source. The calls were made as follows: active = growth percent below 10; inactive = the rest.
endpoint: growth

Below are worked cases with known answers.
molecule: O=C(N/N=C/c1cc2ccccc2n2nnnc12)Nc1ccccc1
growth: 101% (inactive)
--
molecule: CCCN1[C@@H]2CC[C@H]1/C(=C\c1ccc(OC)c(OC)c1)C(=O)/C2=C/c1ccc(OC)c(OC)c1
growth: 44.3% (inactive)
--
molecule: CC1=CCC(OC(=O)C(C)(O)CCC(O)(C(=O)OC2(C)C=CC(O)(C(C)C)CC2)C(C)C)(C(C)C)CC1 (centres undefined)
growth: 113% (inactive)

QUERY: Need growth of Cn1ccnc1C(=O)/C=C/c1ccc(CC(=O)NC2CCCCC2)cc1 , thanks.
RESULT: 59.7% (inactive)

QUERY: Suppose we examine the molecule COc1cc2cc(Oc3cccc(NC(=O)Nc4cc(C(F)(F)F)cc(C(F)(F)F)c4)c3)c(C)nc2cc1OC ; what growth value has been reported?
RESULT: 6.82% (active)

QUERY: Which measured growth value corresponds to COc1ccc(N2CCN(c3ccc(NC4=C(Cl)C(=O)c5ncccc5C4=O)cc3)CC2)cc1 ?
RESULT: 53% (inactive)

QUERY: Look up growth for this molecule: O=C(/C=C(/C=C/c1coc2ccccc12)OB(F)F)/C=C/c1coc2ccccc12
RESULT: 86.2% (inactive)

QUERY: Which value of growth has been reported for CCN1Cc2nc3sc(C)c(C)c3c(=O)n2C=C1C in the records?
RESULT: -6.34% (active)

QUERY: # lookup: growth of CN1[C@@H]2CC[C@H]1/C(=C\c1ccccc1)C(=O)/C2=C/c1ccccc1
RESULT: 36.8% (inactive)
